Sourced from patent US20080112961A1

molecular target: T1, FcγRIIIA (form not stated) (UniProt P08637 17-208, limits assumed); experiment: ELISA
T1 construct: also called FcγRIIIA (ELISA)
T1 sequence (P08637 17-208 F176V limits assumed, form in doubt): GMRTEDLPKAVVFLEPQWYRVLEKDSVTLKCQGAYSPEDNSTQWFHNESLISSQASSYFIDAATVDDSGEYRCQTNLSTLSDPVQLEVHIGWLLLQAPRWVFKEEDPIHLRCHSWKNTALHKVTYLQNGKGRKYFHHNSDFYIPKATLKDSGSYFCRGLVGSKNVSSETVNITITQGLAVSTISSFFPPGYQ
Observable: fold increase vs WT

// fold increase vs WT value for ch4-4-20 K326I, S408N, P396L (antibody) heavy: ASTKGPSVFPLAPSSKSTSGGTAALGCLVKDYFPEPVTVSWNSGALTSGVHTFPAVLQSSGLYSLSSVVTVPSSSLGTQTYICNVNHKPSNTKVDKKVEPKSCDKTHTCPPCPAPELLGGPSVFLFPPKPKDTLMISRTPEVTCVVVDVSHEDPEVKFNWYVDGVEVHNAKTKPREEQYNSTYRVVSVLTVLHQDWLNGKEYKCKVSNIALPAPIEKTISKAKGQPREPQVYTLPPSRDELTKNQVSLTCLVKGFYPSDIAVEWESNGQPENNYKTTPLVLDSDGSFFLYNKLTVDKSRWQQGNVFSCSVMHEALHNHYTQKSLSLSPGK : 4 x
